# Study System: FGFR3 (h) (Homo sapiens)
# Sequence (P22607 23-806): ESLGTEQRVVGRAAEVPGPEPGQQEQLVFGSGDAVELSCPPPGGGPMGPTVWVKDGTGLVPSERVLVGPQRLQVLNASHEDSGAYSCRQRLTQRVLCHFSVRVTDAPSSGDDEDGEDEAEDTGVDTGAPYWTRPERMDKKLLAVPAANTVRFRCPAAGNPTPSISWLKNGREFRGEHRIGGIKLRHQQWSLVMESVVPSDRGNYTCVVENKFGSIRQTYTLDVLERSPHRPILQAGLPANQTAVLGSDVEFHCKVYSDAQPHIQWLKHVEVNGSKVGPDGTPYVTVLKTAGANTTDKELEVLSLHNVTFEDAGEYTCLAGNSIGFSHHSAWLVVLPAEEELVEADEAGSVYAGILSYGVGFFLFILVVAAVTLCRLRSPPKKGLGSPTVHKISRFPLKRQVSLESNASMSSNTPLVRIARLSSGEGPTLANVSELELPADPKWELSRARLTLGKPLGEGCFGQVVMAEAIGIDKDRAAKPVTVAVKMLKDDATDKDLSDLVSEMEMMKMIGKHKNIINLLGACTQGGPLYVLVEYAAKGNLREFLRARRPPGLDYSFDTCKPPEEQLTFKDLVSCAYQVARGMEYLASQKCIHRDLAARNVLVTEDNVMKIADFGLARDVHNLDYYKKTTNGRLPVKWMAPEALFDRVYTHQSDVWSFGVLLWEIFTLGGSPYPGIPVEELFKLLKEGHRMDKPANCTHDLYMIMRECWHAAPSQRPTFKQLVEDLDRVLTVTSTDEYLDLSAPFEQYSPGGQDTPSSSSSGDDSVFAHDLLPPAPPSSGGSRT
# Experiment Notes: FGFR3 (enzymatic assay), TR-FRET
# Type: biochemical
# Condition Set: read-out: FGFR 3 pIC50 (converted)
Property Measured: log10 IC50 (log10 of the value in nM)
Values are log10 of IC50 in nM.

Provide each entry's log10 IC50 from the list below.
1. COc1cc(OC)cc(N(CCO)c2ccc3ncc(-c4ccccc4CCO)nc3c2)c1
2. COc1cc(OC)cc(N(CCCO)c2ccc3ncc(-c4ccnc(F)c4)nc3c2)c1
3. COCC(CN(c1cc(OC)cc(OC)c1)c1ccc2ncc(-c3cccnc3)nc2c1)OC(C)=O (single isomer, unassigned) [Compound 52]
4. COc1cc(OC)cc(N(CCCNC(C)C)c2ccc3ncc(-c4ccnc(N)c4)nc3c2)c1

[2.30, 0.87, 1.46, 0.40]
